test: small-molecule binders of probe aInhba, primary screen, biochemical, small-molecule microarray, 635/667 nm fluorescence (AID 1148); conditions: higher = more signal;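 also: score merges 667nm spot fluorescence with signal-to-noise for antibody binding to printed compounds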
Here the recorded composite z-score is given for each entry.

MOLECULE | composite z-score
O=C1OCCC=C[C@H]2OC34C=CCN(CCN5CCOCC5)C(=O)[C@H]3N(CCCCCCO)C(=O)[C@@H]4C12 (stereo not given in full) | -0.179
O=C1c2ccccc2[C@](Cc2ccccc2I)(C(=O)NC2CC2)[C@H](c2ccc(CO)cc2)N1C1CCCCC1 | 0.306
CCCCN1CC=CC23O[C@@H]4C=CCOC(=O)[C@@H]4[C@H]2C(=O)N(CCCCCO)[C@@H]3C1=O (stereo not given in full) | -0.0531
O=C1C2C=CC(C(O)C3CCCCC3)N(Nc3ccc([N+](=O)[O-])cc3)C2C(=O)N1c1ccccc1 (stereo not given) | -0.213
O=C1O[C@H](c2ccccc2)[C@H](c2ccccc2)N2[C@H]1[C@@H](C(=O)O)[C@]1(C(=O)Nc3ccc(C#CC4=CCCCC4)cc31)[C@H]2c1ccccc1OCCO | 0.17
COc1ccc(C(O)C2C=CC3C(=O)N(c4ccccc4)C(=O)C3N2Nc2ccc(C(C)C)cc2)cc1OCc1ccccc1 (stereo not given) | 0.341
CN1C(=O)C2C=CC(C(O)C3=C[C@H]4C[C@@H](C3)C4(C)C)N(Nc3ccccc3)C2C1=O (stereo not given in full) | -0.0313
CN1C(=O)C2C=CC(C(O)C3CCCCC3)N(Nc3ccc([N+](=O)[O-])cc3[N+](=O)[O-])C2C1=O (stereo not given) | -0.024
Cc1ccc(S[C@]2(C(=O)NCC(F)(F)F)CC(=O)N(C(C)C)[C@@H]2c2ccc(CO)cc2I)cc1 | -0.128
C=C(COC)/C(=C/C[C@@H](OC(C)=O)c1ccc(OCCO)cc1)c1cc(C(=O)OC)ccc1OC | 0.0154
O=C1NC(=O)C2C1C=CC(C(O)c1cccc3ccccc13)N2Nc1ccccn1 (stereo not given) | 0.185
C=CCNC(=O)[C@H]1[C@@H]2C(=O)O[C@@H](c3ccccc3)[C@@H](c3ccccc3)N2[C@@H](c2ccc(OCCO)cc2)[C@]12C(=O)N(C(=O)OCCOC)c1ccccc12 | 0.0925
CCOC(=O)[C@H]1C/C=C/C[C@H](C(=O)OCC)C(=O)O[C@H]2[C@@H](OC)O[C@H](CO)[C@@H](OC(=O)Nc3ccc(C#N)cc3)[C@@H]2OC1=O | -0.128
CCOC(=O)C1=CCC(c2ccccc2)N(S(=O)(=O)CC[Si](C)(C)C)C1 (stereo not given) | -0.363
COC(=O)[C@@]1(Cc2ccc(OC)cc2)[C@H]2c3cc(C(=O)N4CCCC4)n(Cc4ccccc4)c3C[C@H]2CN1C(=O)c1ccccc1 | 1.76

----------
biological target: Concanavalin-A (Canavalia ensiformis) (UniProt P02866); test: ConA small-molecule binders, primary screen, artefact control for SMM control protein annotation, biochemical, small-molecule microarray, Alexa647 label, 635 nm (AID 1127); conditions: ConA-A647 binding fluorescence, higher = more signal;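 also: z combines 667 nm emission intensity with signal-to-noise across three replicate slides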
Sequence (P02866 whole entry, looked up): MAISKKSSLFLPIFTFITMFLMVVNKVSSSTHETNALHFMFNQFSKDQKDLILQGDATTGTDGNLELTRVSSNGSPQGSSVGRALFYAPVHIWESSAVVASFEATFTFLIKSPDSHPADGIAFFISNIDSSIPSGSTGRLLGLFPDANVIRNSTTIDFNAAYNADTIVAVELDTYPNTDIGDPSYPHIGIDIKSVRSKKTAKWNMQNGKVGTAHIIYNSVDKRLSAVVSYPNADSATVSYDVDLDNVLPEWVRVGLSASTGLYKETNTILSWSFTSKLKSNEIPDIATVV
Reported values of composite z-score for individual entries

MOLECULE | composite z-score
O=C1O[C@@H](c2ccccc2)[C@@H](c2ccccc2)N2[C@@H](c3ccc(OCCO)cc3)[C@]3(C(=O)Nc4ccccc43)[C@@H](C(=O)NC[C@H](O)c3ccccc3)[C@H]12 | 0.999
CC(C)(C)C(=O)N[C@@H](c1ccc(Cl)cc1)[C@]1(C)C[C@H]1C1CCCCC1 | 1.19
O=C1OCCC=C[C@H]2OC34C=CCN(CCN5CCOCC5)C(=O)[C@H]3N(CCCCCCO)C(=O)[C@@H]4C12 (some centres not stated) | 0.0309
O=C1O[C@@H](c2ccccc2)[C@@H](c2ccccc2)N2[C@@H](c3ccccc3OCCO)[C@]3(C(=O)Nc4ccc(C#CC5=CCCCC5)cc43)[C@@H](C(=O)Nc3nc4ccccc4s3)[C@H]12 | 1.06
NC(=O)[C@@H]1[C@H]2C(=O)O[C@H](c3ccccc3)[C@H](c3ccccc3)N2[C@H](c2ccc(O)cc2)[C@@]12C(=O)Nc1ccc(C#CC3(O)CCCCCC3)cc12 | -0.107
CC1(C)[C@@H]2CC(C(O)C3C=CC4C(=O)N(c5ccccc5)C(=O)C4N3Nc3ccccc3)=C[C@H]1C2 (some centres not stated) | 0.566
Cc1ccc(S[C@]2(C(=O)NCCN3CCOCC3)CC(=O)N(Cc3ccccc3Cl)[C@@H]2c2ccc(CO)cc2)cc1 | -0.199

----------
Measured z-score of individual entries
molecular target: NADPH oxidase 2 (Homo sapiens); experiment: NOX2-dependent H2O2 signal modulators, primary screen, NOX inhibitor project, cell-based, HEK293-NOX2, PMA-stimulated, Amplex Red fluorescence (AID 1159); conditions: 45 min, higher = more signal, called active from +8 up or from −8 down; also: test concentration not given here

MOLECULE | z-score
COc1ccc([Si](C)(C)[C@H]2[C@H](CCn3cc([C@H](O)c4ccccc4)nn3)O[C@@]3(C(=O)N(Cc4cccc(N5CCOC5=O)c4)c4ccccc43)[C@@H]2C)cc1 | 0.0189
Cc1ccc(C(C)CC(O)C2C=CC3C(=O)N(C)C(=O)C3N2NC(=O)OC(C)(C)C)o1 (centres undefined) | 0.347
C=C(COC)/C(=C/C[C@@H](OC(C)=O)c1ccc(OCCO)cc1)c1cc(C(=O)OC)ccc1OC | -0.0514
CC(C)(C)OC(=O)CC[C@]12N=C(c3ccc(OCCCO)cc3)O[C@H]1c1ccccc1N(CCS(=O)(=O)c1ccccc1)C2=O | -0.859

----------
test system: wheat germ agglutinin (Triticum aestivum), Alexa647-labelled; experiment: wheat germ agglutinin binders on compound microarrays, profiling panel, artefact control for SMM control-protein annotation, biochemical, small-molecule microarray, 635/667 nm fluorescence (AID 1140); conditions: WGA-A647 binding, 635 nm fluorescence, higher = more signal;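 also: score merges 667 nm feature emission with signal to noise over triplicate slides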
Known composite z-score of a selection of molecules

MOLECULE | composite z-score
COc1ccc([Si](C)(C)[C@H]2[C@H](CCO)O[C@@]3(C(=O)N(Cc4ccc(N5C(=O)COc6ccccc65)cc4)c4ccccc43)[C@@H]2C)cc1 | 0.484
C=CC[C@]1(C(=O)NCCCOC)N=C(c2ccc(OCCCO)cc2)O[C@H]1c1ccccc1N=[N+]=[N-] | 0.542
CC(C)C[C@@H]1NC(=O)[C@H]2C[C@@H](C(=O)NCCCCCCN(C)C)[C@@H](c3ccc(O)cc3)N2C1=O | 0.115
[N-]=[N+]=NCc1ccccc1[C@@H]1OC(c2ccc(OCCCO)cc2)=N[C@]1(CCS(=O)(=O)c1ccccc1)C(=O)NCc1ccccc1 | 1.27
CC(C)(C)OC(=O)CC[C@@]1(C(=O)NCC(O)CO)N=C(c2ccc(OCCCO)cc2)O[C@@H]1c1ccccc1N=[N+]=[N-] (some centres not stated) | 0.96
COc1ccc(C(O)C2C=CC3C(=O)N(C)C(=O)C3N2N2CCCCC2)c2ccccc12 (configuration not stated) | 1.27
CC(C)N1C(=O)c2ccccc2[C@](C)(C(=O)NCc2ccccc2)[C@@H]1c1ccc(CO)cc1 | -0.444

----------
experiment: small-molecule binders of probe aNOTCH2, primary screen, biochemical, small-molecule microarray, 635/667 nm fluorescence (AID 1121); conditions: higher = more signal;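 also: score merges feature fluorescence read at 667 nm with its signal to noise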
The label depends only on composite z-score: 1 if it is at least -0.04, -1 if it is smaller.

MOLECULE | ASSIGNED_CLASS
COC(=O)C(CC#Cc1ccc2c(c1)[C@]1(C(=O)N2)[C@H](c2ccc(O)cc2)N2[C@H](c3ccccc3)[C@H](c3ccccc3)OC(=O)[C@H]2[C@@H]1C(=O)Nc1nc2ccccc2s1)C(=O)OC | -1
CC1(C)[C@@H]2CC(C(O)C3C=CC4C(=O)N(c5ccccc5)C(=O)C4N3Nc3ccccc3)=C[C@H]1C2 (stereo partly drawn) | 1
CN(C)CCCC[C@@H]1NC(=O)[C@H]2C[C@@H](C(=O)NCCCCCNC(=O)CS)[C@@H](c3cccc(OCCO)c3)N2C1=O | -1
O=C1O[C@H](c2ccccc2)[C@H](c2ccccc2)N2[C@H]1[C@@H](C(=O)N1CCN(c3ncccn3)CC1)[C@]1(C(=O)Nc3ccc(C#CC4=CCCCC4)cc31)[C@H]2c1ccc(O)cc1 | 1
CC(C)(C)OC(=O)CC[C@]1(C(=O)O)N=C(c2ccc(OCCCO)cc2)O[C@H]1c1ccccc1N=[N+]=[N-] | 1
[N-]=[N+]=Nc1ccccc1C[C@]1(C(N)=O)N=C(c2ccc(OCCCO)cc2)O[C@H]1c1ccccc1 | -1
Cc1ccc(C(C)CC(O)C2C=CC3C(=O)N(C)C(=O)C3N2NC(=O)OC(C)(C)C)o1 (stereo not drawn) | -1
COc1ccc(C(O)C2C=CC3C(=O)NC(=O)C3N2Nc2ccccn2)c2ccccc12 (stereo not drawn) | -1
O=C1[C@H]2C=C(Br)[C@H](C[C@@H]2OCCCCO)[C@@]12CO2 | -1
CC[C@@H]1C=C(C(=O)O)[C@H](c2ccco2)N1S(=O)(=O)c1ccc(C)cc1 | -1
CCOC(=O)C[C@H]1[C@H](OC(=O)Cc2ccc3c(c2)OCO3)[C@@H](NC(=O)c2ccc3ccccc3c2)c2cc(OCCCO)ccc2N1C(=O)c1ccccc1 | -1
COCCCN1C(=O)[C@@]2(Cc3ccccc31)c1ccccc1C(=O)N(Cc1ccccc1C(F)(F)F)[C@H]2c1ccc(CO)cc1 | 1
O=C1O[C@H](c2ccccc2)[C@H](c2ccccc2)N2[C@H]1[C@@H](C(=O)Nc1nc3ccccc3s1)[C@]1(C(=O)Nc3ccc(C#CC4(O)CCCCCC4)cc31)[C@H]2c1ccc(OCCO)cc1 | 1
CCOC(=O)C=Cc1cc([N+](=O)[O-])ccc1O | 1
C=CCOC(=O)[C@@H]1[C@H]2C(=O)O[C@H](c3ccccc3)[C@H](c3ccccc3)N2[C@H](c2ccc(OCCOC(=O)[C@@H]3C[C@@H]4C(=O)N5CCC[C@H]5C(=O)N4[C@@H]3c3ccc(O)cc3)cc2)[C@@]12C(=O)Nc1ccc(I)cc12 | -1
O=C1O[C@H](c2ccccc2)[C@H](c2ccccc2)N2[C@H]1[C@@H](C(=O)O)[C@]1(C(=O)Nc3ccc(C#CC4=CCCCC4)cc31)[C@H]2c1ccccc1OCCO | 1
N#Cc1ccc(NN2C(C(O)c3c(F)cccc3Cl)C=CC3C(=O)N(c4ccccc4)C(=O)C32)cc1 (stereo not drawn) | 1
CC1CC/C=C\[C@H]2OC34C=CCN(c5ccc(Cl)cc5)C(=O)[C@H]3N(CCO)C(=O)[C@]4(C)C2C(=O)O1 (stereo partly drawn) | -1
CCOC(=O)C1=CCC(c2ccccc2)N(S(=O)(=O)CC[Si](C)(C)C)C1 (stereo not drawn) | -1
COCCOC(=O)N1C(=O)[C@@]2(c3ccccc31)[C@H](c1ccccc1OCCO)N1[C@H](c3ccccc3)[C@H](c3ccccc3)OC(=O)[C@H]1[C@@H]2C(=O)Nc1nc2ccccc2s1 | -1
CN(C)CCCNC(=O)[C@@]1(C)c2ccccc2C(=O)N(Cc2cc(F)cc(C(F)(F)F)c2)[C@H]1c1ccc(CO)cc1 | -1
CC(=O)NCCCC[C@@H]1NC(=O)[C@@H]2C[C@H](C(=O)NCCCCCCNC(=O)CS)[C@H](c3cccc(OCCO)c3)N2C1=O | -1
Cc1ccc(S[C@]2(C(=O)NC(C)C)CC(=O)N(Cc3ccccc3Cl)[C@@H]2c2ccc(CO)cc2I)cc1 | -1
CCCC#C[Si](O[C@H](CC)c1cn([C@H](CO)Cc2ccccc2)nn1)(C(C)C)C(C)C | -1
CN(C)C(=O)[C@]1(Cc2ccccc2CN=[N+]=[N-])N=C(c2ccc(OCCCO)cc2)O[C@@H]1c1ccccc1CN=[N+]=[N-] | -1
CC(C)(C)OC(=O)CC[C@@]12N=C(c3ccc(OCCCO)cc3)O[C@@H]1c1ccccc1N(CCS(=O)(=O)c1ccccc1)C2=O | -1
